- Test system: Tov112D
- Measurement notes: Primary qHTS to identify gynecologic anti-cancer compounds using libraries of approved drugs and bioactive compounds (AID 1345084); further: on the % scale 0 is the no-effect control and ±100 the full control effect; nearly all actives have a fitted effect of over 55% in size
- Measurement conditions: Gynecologic cancer cell panel viability, ATPlite luminescence, 48 h; series mostly up to 57.5 µM
- Text: National Center for Advancing Translational Sciences [NCATS] Assay Overview: Chemotherapeutic drug responses vary from cancer to cancer and from patient to patient. […] ATPlite is a luminescence based assay reliant on the conversion of a luciferase substrate to light in the presence of ATP. As a cytotoxic compound will suppress growth and decrease the number of cells, the concentration of ATP will decrease, and less light signal will be detected in the well. […]
Inconclusive results are not listed. Calls of active or inactive are those of the source. The call rests on the fitted dose curve; in most records, active means well fitted cell-killing curve with a large enough effect; inconclusive means small, poorly fitted or top-dose-only effect, or effect the other way; inactive means flat fitted curve, though single readings scatter.
Measured attribute: activity change, negative = cytotoxicity

These solved cases illustrate the format of a correct answer.
[
  {
    "Compound": "CC1CC2OCC3(O)CCC(O)C(C14CC(c1ccoc1)OC4=O)C23CO (configuration not stated)",
    "Measured attribute": "activity change, negative = cytotoxicity",
    "Assay result": "inactive"
  },
  {
    "Compound": "O=C(/C=C/c1ccc(O)cc1)OC[C@H]1O[C@@H](O/C(=C\\c2ccccc2)C(=O)O)[C@H](O)[C@@H](O)[C@@H]1O",
    "Measured attribute": "activity change, negative = cytotoxicity",
    "Assay result": "inactive"
  },
  {
    "Compound": "COc1cccc(C)c1C(=O)O[C@@H]1C[C@H](O[C@H]2[C@H](O)C[C@H](O[C@@H]3CCC[C@H]4[C@H]3C=C[C@@H]3CCCC/C=C/[C@H]5C=C(C(=O)O)[C@@H](C)C[C@@]56OC(=O)C(=C6O)OC(=O)[C@@]34C)O[C@@H]2C)O[C@H](C)[C@H]1O",
    "Measured attribute": "activity change, negative = cytotoxicity",
    "Assay result": "-1.83% [at 11.6 µM] (inactive)"
  },
  {
    "Compound": "C=C1CC[C@H]2[C@@](C)(CCC(OC3OC(CO)C(O)C(O)C3O)[C@@]2(C)CO)C1C(=O)CC1=CCOC1=O (some centres not stated)",
    "Measured attribute": "activity change, negative = cytotoxicity",
    "Assay result": "inactive"
  }
]

I would be grateful if you could share the reported activity change, negative = cytotoxicity for CC1(C)CC[C@]2(C(=O)O[C@@H]3O[C@H](CO)[C@@H](O)[C@H](O)[C@H]3O)CC[C@]3(C)C(=CCC4[C@@]5(C)C[C@H](O)[C@H](O[C@@H]6OC[C@@H](O)[C@H](O)[C@H]6O)[C@@](C)(CO)C5CC[C@]43C)C2C1 (some centres not stated) . 3.56% [at 11.6 µM] (inactive)

Do the same for COC(=O)[C@]1(Cc2ccc(O)c(CC=C(C)C)c2)OC(=O)C(O)=C1c1ccc(O)cc1 please inactive
